- target.of.assay: T1, SH2 domain of Crkl protein (residues 1-111), H91A variant (UniProt P46109 1-111, H91A)
- T1 construct: Crkl adaptor protein, SH2 domain, residues 1-111, His91 replaced by alanine; Site-directed mutant of m1 (QuikChange); source: E. coli BL21 (DE3), purified (HisTrap nickel column, desalting); not shown: His tag, N-terminal, kept
- method: stopped-flow fluorescence kinetics (FRET); dansyl-Pax112-123 constant at 2 μM mixed with Crkl-SH2 2 to 10 μM (pseudo-first-order, kon); koff by displacement of the preincubated 2 µM complex with excess non-dansylated Pax112-123 (30 μM); 283 K; 50 mM sodium-acetate pH 5.5, 0.5 M NaCl
- condition.description: both partners purified
Square brackets hold non-standard residues; d marks the D form. Ends that are not written are not given here. * marks the point of attachment. pY = N[C@@H](Cc1ccc(OP(=O)(O)O)cc1)C(=O)O; Dansyl = CN(C)c1cccc2c(S(=O)(=O)*)cccc12
measurement.kind: pKd
# pKd = -log10(concentration in molar units)

Any idea what its pKd is? The binder is Dansyl-GEEEHV[pY]SFPNK (The dansyl group is the FRET acceptor of Trp14 of the SH2 domain; source: synthetic peptide, bought: GenScript) [dansylated Pax_(112–123) peptide (Dans-GEEEHV-pY-SFPNK)] 5.37

Values compiled from paper PMC9332313.
